Test system: LG0567-F671-PDC KRAS tumor spheroid viability;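 further: drug exposure lasted seven days after spheroids formed for three days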
METHOD_DESCRIPTION: Anticancer human tumor LG0567-F671-PDC patient-derived lung adenocarcinoma cell line growth inhibition [KRAS2]; active means viability on the fitted dose curve at most 10% of control; inactive means the rest
RECORDED_CONDITIONS: second compound 0.1 µM; first compound 3.16 µM; spheroids with HUVEC and MSC
Hi! Could you answer with just one of these? T for active, F for inactive

// below: answered compounds
CC1COCCN1c1cc(-c2ccnn2C)c2ccnc(-c3ccn[nH]3)c2n1 (stereo unspecified) + CC1OCC2(CCN(c3cnc(Sc4ccnc(N)c4Cl)c(N)n3)CC2)C1N
F
CCNC(=O)CC1N=C(c2ccc(Cl)cc2)c2cc(OC)ccc2-n2c(C)nnc21 (stereo unspecified) + CC1OCC2(CCN(c3cnc(Sc4ccnc(N)c4Cl)c(N)n3)CC2)C1N
F
CC1OCC2(CCN(c3cnc(Sc4ccnc(N)c4Cl)c(N)n3)CC2)C1N (stereo unspecified) + C=CC(=O)N1CCN(c2nc(OCC3CCCN3C)nc3c2CCN(c2cccc4cccc(C)c24)C3)CC1CC#N
T
COc1cc(Nc2ncc3c(n2)-c2ccc(Cl)cc2C(c2c(F)cccc2OC)=NC3)ccc1C(=O)O + CC1OCC2(CCN(c3cnc(Sc4ccnc(N)c4Cl)c(N)n3)CC2)C1N
F
COc1cc2nccc(Oc3ccc(NC(=O)C4(C(=O)Nc5ccc(F)cc5)CC4)cc3)c2cc1OC + C=CC(=O)N1CCN(c2nc(=O)n(-c3c(C)ccnc3C(C)C)c3nc(-c4c(O)cccc4F)c(F)cc23)C(C)C1
F

Pending compound:
QUERY: Status in this test for Cn1nccc1Nc1nccc(-c2cc3c(s2)C(C)(C)N(CCN2CCOCC2)C3=O)n1 + CNCc1ccccc1-c1csc(C(C)Nc2nc(C)nc3cc(OC)c(OC)cc23)c1 ?
RESULT: F
